Molecular target: ANO1 (Homo sapiens, UniProt Q5XXA6, DEL476-501)
Construct: The YFP assay uses FRT-ANO1-YFP cells, which also carry the halide sensor
Sequence (Q5XXA6 with tags, fused parts or gaps isoform Q5XXA6-5 DEL539-564): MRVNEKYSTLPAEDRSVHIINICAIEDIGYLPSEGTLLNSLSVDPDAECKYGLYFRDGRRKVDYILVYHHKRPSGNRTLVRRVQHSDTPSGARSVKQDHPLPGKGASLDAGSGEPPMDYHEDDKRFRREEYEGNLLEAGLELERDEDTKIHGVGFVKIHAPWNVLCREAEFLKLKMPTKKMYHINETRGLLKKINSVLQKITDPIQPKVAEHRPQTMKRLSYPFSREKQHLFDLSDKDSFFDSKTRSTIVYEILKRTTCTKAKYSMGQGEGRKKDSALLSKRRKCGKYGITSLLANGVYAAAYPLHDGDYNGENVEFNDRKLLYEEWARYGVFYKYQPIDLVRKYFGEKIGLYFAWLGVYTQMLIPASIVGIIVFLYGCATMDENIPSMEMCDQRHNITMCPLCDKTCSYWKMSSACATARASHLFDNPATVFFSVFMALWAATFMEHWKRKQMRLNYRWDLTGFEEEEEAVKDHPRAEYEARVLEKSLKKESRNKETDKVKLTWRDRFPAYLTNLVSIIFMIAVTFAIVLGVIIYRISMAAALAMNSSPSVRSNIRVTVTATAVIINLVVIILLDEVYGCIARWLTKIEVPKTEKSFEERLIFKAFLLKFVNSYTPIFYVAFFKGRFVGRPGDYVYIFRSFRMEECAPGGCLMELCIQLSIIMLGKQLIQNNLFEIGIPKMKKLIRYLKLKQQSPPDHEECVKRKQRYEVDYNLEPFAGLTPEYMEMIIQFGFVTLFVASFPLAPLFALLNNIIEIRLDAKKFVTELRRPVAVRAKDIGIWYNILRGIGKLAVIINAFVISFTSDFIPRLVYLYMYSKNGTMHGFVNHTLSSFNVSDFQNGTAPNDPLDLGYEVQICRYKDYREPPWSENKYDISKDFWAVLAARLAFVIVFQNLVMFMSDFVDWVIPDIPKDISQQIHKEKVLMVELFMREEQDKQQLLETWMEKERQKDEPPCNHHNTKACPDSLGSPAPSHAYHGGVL
Experiment: YFP fluorescence quenching assay for ANO1 activity in FRT-ANO1 cells
Details: ATP 100 μM, n = 4
Could you please report measured pIC50 for the items listed next?
Convention used: pIC50 is expressed as -log10 of the molar concentration.

input: For the molecule O=c1oc2ccccc2c(O)c1C(c1cc([N+](=O)[O-])c(Cl)cc1Cl)c1c(O)c2ccccc2oc1=O [VI-103] , give its reported pIC50.
output: 5.49

input: For the molecule O=c1oc2ccccc2c(O)c1C(c1ccc(O)c(O)c1)c1c(O)c2ccccc2oc1=O [VI-115] , give its reported pIC50.
output: 4.21

input: For the molecule O=c1oc2ccccc2c(O)c1C(c1cccc([N+](=O)[O-])c1)c1c(O)c2ccccc2oc1=O [VI-105] , give its reported pIC50.
output: 5.42
